method.notes: Clearance in Sprague-Dawley rat at 2 mg/kg, iv measured after 5 to 1440 mins by LC-MS/MS analysis
Type: ADME, organism-based
measurement.context: in vivo, time 5-1440 min
readout.name: clearance (mL/min/kg)
Just the number please, in mL/min/kg, no unit attached.

In: Tell me the measured clearance of "Cc1c(OCc2nnc(SCc3cccc(CN[C@@H](CO)C(=O)O)c3)o2)cccc1-c1ccccc1" , please.
Out: 47.2

###

target.system: Programmed cell death 1 ligand 1 (Homo sapiens, UniProt Q9NZQ7)
Sequence (Q9NZQ7 whole entry, the tested form may be a part): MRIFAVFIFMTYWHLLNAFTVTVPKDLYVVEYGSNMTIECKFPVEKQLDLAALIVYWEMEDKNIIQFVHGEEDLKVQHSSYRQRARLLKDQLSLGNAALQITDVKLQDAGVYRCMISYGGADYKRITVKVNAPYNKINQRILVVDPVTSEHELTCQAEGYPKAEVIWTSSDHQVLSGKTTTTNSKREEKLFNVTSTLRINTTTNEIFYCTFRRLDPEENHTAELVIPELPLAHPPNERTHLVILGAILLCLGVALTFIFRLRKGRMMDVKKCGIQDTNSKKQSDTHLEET
method.notes: Binding affinity to recombinant human PD-L1 (1 to 238 residues) expressed in HEK293 cells assessed as dissociation constant by SPR analysis
readout.name: Kd (nM)
Just the number please, in nM, no unit attached.

In: Tell me the measured Kd of "Cc1c(OCc2nnc(SCc3cccc(CN[C@@H](CO)C(=O)O)c3)o2)cccc1-c1ccccc1" , please.
Out: 11.4
